assay.readout: MIC

API: value(readout=MIC, system=E. coli B90) for record CCCc1c(O)cc2oc3cccn3c(=O)c2c1O 4 mg/L

What MIC appears in the records for this compound with E. coli B90? CCCc1c(O)cc2oc3cc(Cl)c(C=NO)n3c(=O)c2c1O > 64 mg/L

Value wanted: MIC (E. coli B90) of entry CCCc1c(O)cc2oc3cc(Cl)c(C=O)n3c(=O)c2c1O 4 mg/L

Test system E. coli B90; read-out MIC; what value for CCCc1c(OC(C)=O)cc2oc3cc(Cl)cn3c(=O)c2c1OC(C)=O ? 64 mg/L

---

Reported MIC for target or system E. coli Tol C, by entry.
Just the number in µg/mL, nothing appended.

Can you share its MIC? I mean this compound: CCCc1c(O)cc2oc3cc(Cl)c(C=O)n3c(=O)c2c1O 2

Find the recorded MIC belonging to CCCc1c(OC(C)=O)cc2oc3cc(Cl)cn3c(=O)c2c1OC(C)=O and report it. 8

GET /values?readout=MIC&item= CCCc1c(O)cc2oc3cc(Cl)c(C=NO)n3c(=O)c2c1O 8

Given the entry CCCc1c(O)cc2oc3cccn3c(=O)c2c1O , report its measured MIC. 2
